Values were extracted from patent US9511134B2.

Give IC50 for every item shown.
- study-system: DRB1*1501 (Homo sapiens, UniProt P01903+P01911)
- Construct: made in house; host or cells: EBV-transformed homozygous human B cell lines, transfected fibroblasts or single-allele 721.221 transfectants
- measurement-description: biochemical
- Format: binding
- protocol-conditions: read-out: IC50 nM to purified HLA DRB1*1501

Parameter requested: IC50. Apply to each item below.
1. CC[C@H](C)[C@H](NC(=O)CNC(=O)[C@H](CC(N)=O)NC(=O)[C@H](Cc1ccc(O)cc1)NC(=O)[C@H](CCCCN)NC(=O)[C@H](CC(C)C)NC(=O)[C@@H](NC(=O)[C@H](C)NC(=O)[C@@H](N)C(C)C)C(C)C)C(=O)N[C@H](C(=O)N[C@H](C(=O)N[C@@H](CC(=O)O)C(=O)N[C@H](C(=O)N[C@H](C(=O)N[C@@H](CCCCN)C(=O)N[C@@H](CO)C(=O)N[C@@H](Cc1c[nH]c2ccccc12)C(=O)O)[C@@H](C)CC)[C@@H](C)O)[C@@H](C)O)[C@@H](C)CC
2. CC[C@H](C)[C@H](N)C(=O)N[C@@H](CC(C)C)C(=O)N[C@@H](CO)C(=O)N[C@H](C(=O)N[C@@H](Cc1ccc(O)cc1)C(=O)N[C@@H](CO)C(=O)N[C@H](C(=O)N[C@H](C(=O)N[C@@H](C)C(=O)N[C@@H](CO)C(=O)N[C@@H](CO)C(=O)N[C@@H](CC(C)C)C(=O)N[C@@H](C)C(=O)N[C@@H](CC(C)C)C(=O)N[C@@H](C)C(=O)N[C@H](C(=O)O)[C@@H](C)CC)C(C)C)[C@@H](C)O)[C@@H](C)CC
3. CC[C@H](C)[C@H](NC(=O)[C@H](CC(C)C)NC(=O)[C@@H](NC(=O)[C@H](CCC(=O)O)NC(=O)[C@H](CC(C)C)NC(=O)[C@H](CCCNC(=N)N)NC(=O)[C@H](CC(=O)O)NC(=O)[C@H](Cc1ccccc1)NC(=O)[C@@H](NC(=O)[C@@H](NC(=O)[C@H](CO)NC(=O)[C@H](Cc1ccccc1)NC(=O)[C@@H](N)CC(N)=O)C(C)C)[C@@H](C)CC)[C@@H](C)O)C(=O)N[C@@H](CC(C)C)C(=O)N[C@@H](CC(C)C)C(=O)O

Response line:
1: 19 nM; 2: 20 nM; 3: 6930 nM
